Catalogue of P50 values
Organism: Homo sapiens
Run description: Ability of 1 mM to reduce affinity of hemoglobin for oxygen is assessed from 50% partial pressure of oxygen in intact red cells
Format: functional

Molecule	Readout label	Endpoint result
CC(C)(Oc1ccc(NC(=O)c2cc(Cl)cc(Cl)c2)cc1)C(=O)O	P50	25.33 mmHg

Query block: May I ask what P50 has been recorded for CC(C)(Oc1ccc(NC(=O)Nc2ccc(Cl)c([N+](=O)[O-])c2)cc1)C(=O)O ?
Result block: 52.5 mmHg

Query block: May I ask what P50 has been recorded for CC(C)(Oc1ccc(NC(=O)Nc2cc(F)cc(F)c2)cc1)C(=O)O ?
Result block: 21 mmHg

Query block: May I ask what P50 has been recorded for CC(C)(Oc1ccc(CCNC(=O)c2ccc(Cl)cc2)cc1)C(=O)O [BEZAFIBRATE] ?
Result block: 17 mmHg

Query block: May I ask what P50 has been recorded for CC(C)(Oc1ccc(CCNC(=O)c2cc(Cl)cc(Cl)c2)cc1)C(=O)O ?
Result block: 22.75 mmHg

Query block: May I ask what P50 has been recorded for CC(C)(Oc1ccc(NC(=O)Nc2ccc3c(c2)OCO3)cc1)C(=O)O ?
Result block: 9.5 mmHg

###

Organism: Homo sapiens
Run description: Ability of 1 mM compound to reduce affinity of hemoglobin for oxygen is assessed from 50% partial pressure of oxygen in intact red cells
Format: functional
Catalogue of P50 values
// units = mmHg; emit number, no label

The examples below pair each entry with its known result.
Compound	Readout units	P50
CC(C)(Oc1ccc(NC(=O)Nc2ccc(C(=O)O)cc2)cc1)C(=O)O	mmHg	9
CC(C)(Oc1ccc(NC(=O)Nc2ccccc2)cc1)C(=O)O	mmHg	10
Cc1ccc(NC(=O)Nc2ccc(OC(C)(C)C(=O)O)cc2)cc1	mmHg	15.5
CC(C)(Oc1ccc(NC(=O)Nc2cccc(Cl)c2)cc1)C(=O)O	mmHg	17.75
CC(C)(Oc1ccc(NC(=O)COc2ccc(Cl)cc2)cc1)C(=O)O	mmHg	17.5

Query block: May I ask what P50 has been recorded for COc1ccc(NC(=O)Nc2ccc(OC(C)(C)C(=O)O)cc2)cc1 ?
Result block: 12.5

Query block: May I ask what P50 has been recorded for COc1ccc(NC(=O)Nc2ccc(OC(C)(C)C(=O)O)cc2)cc1OC ?
Result block: 8.5

Query block: May I ask what P50 has been recorded for CC(C)(Oc1ccc(NS(=O)(=O)Cc2ccccc2)cc1)C(=O)O ?
Result block: 11.5

Query block: May I ask what P50 has been recorded for CC(C)(Oc1ccc(NC(=O)Nc2ccccc2O)cc1)C(=O)O ?
Result block: 10

Query block: May I ask what P50 has been recorded for CC(C)(Oc1ccc(CC(NC(=O)c2ccc(Cl)cc2)C(=O)O)cc1)C(=O)O (centres undefined) ?
Result block: 12

###

Target of assay: Hemoglobin HbA (Homo sapiens) (UniProt P69905+P68871)
Sequence (P68871 2-147 partner limits assumed): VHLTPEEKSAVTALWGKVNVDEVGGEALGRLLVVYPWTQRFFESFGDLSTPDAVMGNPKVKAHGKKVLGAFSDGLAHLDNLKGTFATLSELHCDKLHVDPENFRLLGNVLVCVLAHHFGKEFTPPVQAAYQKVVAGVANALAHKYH
Sequence (P69905 2-142 limits assumed): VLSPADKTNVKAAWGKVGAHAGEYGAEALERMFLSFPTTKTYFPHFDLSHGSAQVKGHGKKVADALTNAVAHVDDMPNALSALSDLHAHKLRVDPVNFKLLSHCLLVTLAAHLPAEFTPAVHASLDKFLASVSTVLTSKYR
Run description: Ratio of effect of compound on affinity of hemoglobin for oxygen to that of control
Type: functional
Catalogue of Ratio values

Chemical string	Ratio
CC(C)(Oc1ccc(NC(=O)Nc2ccc(Cl)c(Cl)c2)cc1)C(=O)O	2.29 [middle of 4 runs]

Query block: May I ask what Ratio has been recorded for CC(C)(Oc1ccc(NC(=O)Nc2cccc(Cl)c2Cl)cc1)C(=O)O ?
Result block: 2.46 [middle of 4 runs]

Query block: May I ask what Ratio has been recorded for CC(C)(Oc1ccc(NC(=O)Nc2ccc(Cl)c([N+](=O)[O-])c2)cc1)C(=O)O ?
Result block: 5.43 [middle of 4 runs]

###

Species: Homo sapiens
Run description: Ability of 1 mM to reduce affinity of hemoglobin for oxygen is assessed from 50% partial pressure of oxygen in membrane free hemoglobin solution
Assay type: functional
Readout label: P50

The examples below pair each entry with its known result.
Compound	P50
CC(C)(Oc1ccc(NC(=O)Nc2ccccc2Cl)cc1)C(=O)O	14.2 mmHg
CC(C)(Oc1ccc(NC(=O)Nc2cc(F)cc(F)c2)cc1)C(=O)O	15.2 mmHg
CC(C)(Oc1ccc(-c2ccccc2)cc1)C(=O)O	7 mmHg
CC(C)(Oc1ccc(NC(=O)Nc2ccc([N+](=O)[O-])cc2)cc1)C(=O)O	19 mmHg
CC(C)(Oc1ccc(NC(=O)Nc2ccc(Cl)c([N+](=O)[O-])c2)cc1)C(=O)O	43.5 mmHg

Query block: May I ask what P50 has been recorded for Cc1ccc(NC(=O)Nc2ccc(OC(C)(C)C(=O)O)cc2)cc1 ?
Result block: 26 mmHg

Query block: May I ask what P50 has been recorded for CC(C)(Oc1ccc(NC(=O)Nc2ccc(C(=O)O)cc2)cc1)C(=O)O ?
Result block: 8 mmHg

Query block: May I ask what P50 has been recorded for CC(C)(Oc1ccc(NC(=O)CNC(=O)c2ccc(Cl)cc2)cc1)C(=O)O ?
Result block: 8.5 mmHg

Query block: May I ask what P50 has been recorded for CC(C)(Oc1ccc(NC(=N)Nc2ccc(Cl)cc2)cc1)C(=O)O ?
Result block: 9 mmHg

Query block: May I ask what P50 has been recorded for CC(C)(Oc1ccc(NC(=O)Nc2ccccc2)cc1)C(=O)O ?
Result block: 10 mmHg

Query block: May I ask what P50 has been recorded for Cc1ccc(NC(=O)Nc2ccc(OC(C)(C)C(=O)O)cc2)cc1C ?
Result block: 27.2 mmHg

Query block: May I ask what P50 has been recorded for CC(C)(Oc1ccc(CCNC(=O)c2cc(Cl)cc(Cl)c2)cc1)C(=O)O ?
Result block: 12.5 mmHg

Query block: May I ask what P50 has been recorded for COc1ccc(NC(=O)Nc2ccc(OC(C)(C)C(=O)O)cc2)cc1OC ?
Result block: 14.5 mmHg

Query block: May I ask what P50 has been recorded for CC(C)(Oc1ccc(NC(=O)Nc2ccccc2O)cc1)C(=O)O ?
Result block: 12.5 mmHg

Query block: May I ask what P50 has been recorded for CC(C)(Oc1ccc(NC(=O)Nc2ccc(O)cc2)cc1)C(=O)O ?
Result block: 11 mmHg

###

Organism: Homo sapiens
Run description: Ability of 0.5 mM to reduce affinity of hemoglobin for oxygen is assessed from 50% partial pressure of oxygen in membrane free hemoglobin solution
Assay type: functional
Classify: TRUE when P50 is strictly less than 20 mmHg; FALSE when P50 is not.

Illustrative cases are given below, each with its answer.
Molecule	Cat
CC(C)(Oc1ccc(CCNC(=O)c2cc(Cl)cc(Cl)c2)cc1)C(=O)O	TRUE
CC(C)(Oc1ccc(NC(=O)Nc2ccc(Cl)c([N+](=O)[O-])c2)cc1)C(=O)O	FALSE
O=C(O)COc1ccc(NC(=O)Nc2ccc(Cl)c(Cl)c2)cc1	TRUE
CC(C)(Oc1ccc(NC(=O)Nc2cc(Cl)ccc2Cl)cc1)C(=O)O	TRUE
CC(C)(Oc1ccc(NC(=O)Nc2ccc(Cl)cc2Cl)cc1)C(=O)O	TRUE

Query block: Given CC(C)(Oc1ccc(NC(=O)Nc2ccc(Cl)c(Cl)c2)cc1)C(=O)O , is recorded P50 strictly lower than 20 mmHg?
Result block: FALSE

Query block: Given CC(C)(Oc1ccc(CCNC(=O)c2ccc(Cl)cc2)cc1)C(=O)O [BEZAFIBRATE] , is recorded P50 strictly lower than 20 mmHg?
Result block: TRUE

Query block: Given Cc1ccc(NC(=O)Nc2ccc(OC(C)(C)C(=O)O)cc2)cc1C , is recorded P50 strictly lower than 20 mmHg?
Result block: TRUE

Query block: Given CC(C)(Oc1ccc(NC(=O)Nc2cc(Cl)cc(Cl)c2)cc1)C(=O)O , is recorded P50 strictly lower than 20 mmHg?
Result block: FALSE

Query block: Given CC(C)(Oc1ccc(NC(=O)c2ccc(Cl)cc2)cc1)C(=O)O , is recorded P50 strictly lower than 20 mmHg?
Result block: FALSE

###

Species: Homo sapiens
Run description: Ability of 0.5 mM to reduce affinity of hemoglobin for oxygen is assessed from 50% partial pressure of oxygen in membrane free hemoglobin solution
Assay type: functional
Readout label: P50 (mmHg)
// units = mmHg; emit number, no label

Chemical string	Readout units	Endpoint result
CC(C)(Oc1ccc(NC(=O)Nc2cccc(Cl)c2Cl)cc1)C(=O)O	mmHg	16

Query block: May I ask what P50 has been recorded for CC(C)(Oc1ccc(NC(=O)Nc2cc(F)cc(F)c2)cc1)C(=O)O ?
Result block: 12.2

Query block: May I ask what P50 has been recorded for CC(C)(Oc1ccc(NC(=O)Nc2ccc([N+](=O)[O-])cc2)cc1)C(=O)O ?
Result block: 13

Query block: May I ask what P50 has been recorded for CC(C)(Oc1ccc(NC(=O)c2cc(Cl)cc(Cl)c2)cc1)C(=O)O ?
Result block: 12.2

###

Species on record: Homo sapiens
Run description: Ability of 0.5 mM to reduce affinity of hemoglobin for oxygen is assessed from 50% partial pressure of oxygen in intact red cells
Assay type: functional
Catalogue of P50 values
// units = mmHg; emit number, no label

The examples below pair each entry with its known result.
Compound	P50, mmHg
CC(C)(Oc1ccc(CCNC(=O)c2cc(Cl)cc(Cl)c2)cc1)C(=O)O	17.75
CC(C)(Oc1ccc(CCNC(=O)c2ccc(Cl)cc2)cc1)C(=O)O [BEZAFIBRATE]	14.5
CC(C)(Oc1ccc(NC(=O)Nc2ccc(Cl)c([N+](=O)[O-])c2)cc1)C(=O)O	40

Query block: May I ask what P50 has been recorded for CC(C)(Oc1ccc(NC(=O)c2cc(Cl)cc(Cl)c2)cc1)C(=O)O ?
Result block: 19.66

Query block: May I ask what P50 has been recorded for CC(C)(Oc1ccc(NC(=O)Nc2cc(Cl)cc(Cl)c2)cc1)C(=O)O ?
Result block: 51

Query block: May I ask what P50 has been recorded for CC(C)(Oc1ccc(NC(=O)Nc2cc(Cl)ccc2Cl)cc1)C(=O)O ?
Result block: 23.75

Query block: May I ask what P50 has been recorded for CC(C)(Oc1ccc(NC(=O)Nc2ccc(Cl)cc2Cl)cc1)C(=O)O ?
Result block: 21.25
